Tested on: ESCHERICHIA COLI H560
Assay: In vitro antibacterial activity, MIC, BHI agar dilution
Assay type: cell-based
Details: E. coli H560, unit assumed
measurement-name: MIC

Give measured MIC for every item shown.
1. CC[C@H]1OC(=O)[C@H](C)C(=O)[C@H](C)[C@@H](O[C@@H]2O[C@H](C)C[C@H](N(C)C)[C@H]2O)[C@](C)(OC)C[C@@H](C)C2=NC3CN(S(=O)(=O)Cc4ccccc4[N+](=O)[O-])CC3N3C(=O)O[C@@]1(C)[C@H]3[C@H]2C (some centres unmarked)
2. CC[C@H]1OC(=O)[C@H](C)C(=O)[C@H](C)[C@@H](O[C@@H]2O[C@H](C)C[C@H](N(C)C)[C@H]2O)[C@](C)(OC)C[C@@H](C)C2=N[C@H](COCc3ccc(Cl)cc3)CN3C(=O)O[C@@]1(C)[C@H]3[C@H]2C
3. CC[C@H]1OC(=O)[C@H](C)C(=O)[C@H](C)[C@@H](O[C@@H]2O[C@H](C)C[C@H](N(C)C)[C@H]2O)[C@](C)(OC)C[C@@H](C)C2=N[C@H](COCc3cccnc3)CN3C(=O)O[C@@]1(C)[C@H]3[C@H]2C
4. CCC1OC(=O)C(C)C(=O)C(C)C(OC2OC(C)CC(N(C)C)C2O)C(C)(OC)CC(C)C2=NCC(CSc3ccccc3)(CN(C)Cc3ccccc3)N3C(=O)OC1(C)C3C2C (centres unmarked)

Response given:
1. > 100 µg/mL
2. > 100 µg/mL
3. > 100 µg/mL
4. > 100 µg/mL

Give measured MIC for every item shown.
1. CC[C@H]1OC(=O)[C@H](C)C(=O)[C@H](C)[C@@H](O[C@@H]2O[C@H](C)C[C@H](N(C)C)[C@H]2O)[C@](C)(OC)C[C@@H](C)C2=NC[C@H](Cc3ccc(OCc4ccccc4)cc3)N3C(=O)O[C@@]1(C)[C@H]3[C@H]2C
2. CCC1OC(=O)C(C)C(=O)C(C)C(OC2OC(C)CC(N(C)C)C2O)C(C)(OC)CC(C)C2=NC(CCOc3ccccc3)CN3C(=O)OC1(C)C3C2C (centres unmarked)

Response given:
["> 100 µg/mL", "> 100 µg/mL"]

Give measured MIC for every item shown.
1. CC[C@H]1OC(=O)[C@H](C)C(=O)[C@H](C)[C@@H](O[C@@H]2O[C@H](C)C[C@H](N(C)C)[C@H]2O)[C@](C)(OC)C[C@@H](C)C2=NC3COCC3N3C(=O)O[C@@]1(C)[C@H]3[C@H]2C (some centres unmarked)
2. CC[C@H]1OC(=O)[C@H](C)C(=O)[C@H](C)[C@@H](O[C@@H]2O[C@H](C)C[C@H](N(C)C)[C@H]2O)[C@](C)(OC)C[C@@H](C)C2=N[C@H](COCc3ccnc4ccccc34)CN3C(=O)O[C@@]1(C)[C@H]3[C@H]2C

Response given:
1. > 100 µg/mL
2. > 100 µg/mL
